Give Th-T fluorescence of Aβ42 (sheet Fig. 7a), mean of three wells for every item shown.
- TEST SYSTEM: Aβ42 (Homo sapiens, UniProt P05067)
- Sequence (P05067 672-713): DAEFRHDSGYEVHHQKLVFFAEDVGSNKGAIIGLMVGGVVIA
- ASSAY EXPLANATION: Th-T (thioflavin-T) assay of Aβ42 aggregation
- Type: biochemical
- CONDITIONS USED: head suffix _10 (concentration 10); reading M64
Answers are plain numbers.

- C=C1CCC2C(C)(CCC=C(C)C)C(O)CCC2(C)C1Cc1c(OC)oc(CO)c(C)c1=O (centres unmarked) [Compound 12]: 3.415
- C=C1CC[C@@H]2[C@](C)(CC[C@H]3O[C@H](C=C(C)C)C[C@@]23C)[C@@H]1Cc1c(OC)oc(CO)c(C(=O)OC)c1=O [Compound 21]: 0.6173
- C=C1CCC2C(C)(CCC=C(C)C)C(O)CCC2(C)C1Cc1c(OC)oc(C)c(C(=O)OC)c1=O (centres unmarked) [Compound 14]: 2.685
- C=C1CC[C@@H]2[C@](C)(CC[C@H]3O[C@H](C=C(C)C)C[C@@]23C)[C@@H]1Cc1c(OC)oc(CO)c(C)c1=O [Compound 20]: 3.444

Continue with the compound presented below.
So what does the record say about Th-T fluorescence of Aβ42 (sheet Fig. 7a), mean of three wells for C=C1CCC2C(C)(CCC=C(C)C)C(O)CCC2(C)C1Cc1c(OC)oc(CO)c(C(=O)OC)c1=O (centres unmarked) [Compound 13] ? 1.557

====

- Test system: MCF-7 cells
- ASSAY EXPLANATION: cell cytotoxic effects against MCF-7 cells (72 h), A490
- Assay type: cell-based, human
- CONDITIONS USED: Homo sapiens, MCF7, 72 h, MCF-7, 72 h, 1 µM (DMSO 0.02%); read-out: A490 (control =1) ave
- Protocol: !" ' ' '! !" ' ' '! !" ' ' '!!" ' ' '!!" ' ' '!!" ' ' '!!" ' ' '!!" ' ' '! !" ' ' '! !" ' ' '! !" ' ' '! !"#$ ( % ) * '! '' '# '+ '$ '( '% ! " # $ %& %% %' %( %) %! %" !" ' ' '! !" ' ' '!!" ' ' '!!" ' ' '!!" ' ' '!!" ' ' '!!" ' ' '! !" ' ' '! !" ' ' '! !" ' ' '! !" ' ' '! […] Supplementary Fig. 46. a, Cell cytotoxic effects of DDPs against MCF-7 cells (72 h). dose dependent cytotoxic effects against MCF-7 cells were tested their inhibitory activity against mammosphere formation. […]
MEASUREMENT NAME: viability at 1 µM (%)
Give bare numbers, in %.

* COc1cccc2c1C(=O)c1c(O)c3c(c(O)c1C2=O)C[C@@](O)(C(=O)CO)C[C@@H]3O[C@H]1C[C@H](N)[C@H](O)[C@H](C)O1 [Dox, doxorubicin, reference compound] | 47.4
* C=C1CCC2C(C)(CC(=O)C=C(C)C)C(O)CCC2(C)C1Cc1c(OC)oc(C)c(C)c1=O (stereo not drawn) | 103
* C=C1CC[C@H]2[C@]3(C)C[C@H](C=C(C)C)O[C@H]3CC[C@]2(C)[C@@H]1Cc1c(OC)oc(C)c(C)c1=O | 76.3
* C=C1CC[C@H]2[C@]3(C)C[C@H](C=C(C)C)O[C@H]3CC[C@]2(C)[C@@H]1Cc1c(O)c(C)c(C)oc1=O | 109
* C=C1CC[C@@H]2[C@](C)(CC[C@H]3O[C@H](C=C(C)C)C[C@@]23C)[C@@H]1Cc1c(OC)oc(CO)c(C)c1=O | 45.3

Continue with the compound presented below.
So what does the record say about viability at 1 µM for O=c1[nH]cc(F)c(=O)[nH]1 [Compound 5-FU, 5-fluorouracil, reference compound] ? 67.3

====

- TEST SYSTEM: Aβ42 (Homo sapiens)
- ASSAY EXPLANATION: Th-T (thioflavin-T) assay of Aβ42 aggregation
- Assay type: biochemical
- CONDITIONS USED: column suffix _20; reading M10
Give Th-T assay signal, mean of three wells (Fig. 7a) for every item shown.
Answers are plain numbers.

Below: 4 compounds and their reported Th-T assay signal, mean of three wells (Fig. 7a).
• C=C1CC[C@@H]2[C@](C)(CC[C@H]3O[C@H](C=C(C)C)C[C@@]23C)[C@@H]1Cc1c(OC)oc(CO)c(C)c1=O = 0.5653
• C=C1CCC2C(C)(CCC=C(C)C)C(O)CCC2(C)C1Cc1c(OC)oc(CO)c(C)c1=O (centres unmarked) = 2.562
• C=C1CC[C@@H]2[C@](C)(CC[C@H]3O[C@H](C=C(C)C)C[C@@]23C)[C@@H]1Cc1c(OC)oc(CO)c(C(=O)OC)c1=O = 0.1989
• C=C1CCC2C(C)(CCC=C(C)C)C(O)CCC2(C)C1Cc1c(OC)oc(C)c(C(=O)OC)c1=O (centres unmarked) = 0.3505

Continue with the compound presented below.
What measured Th-T assay signal, mean of three wells (Fig. 7a) is associated with C=C1CCC2C(C)(CCC=C(C)C)C(O)CCC2(C)C1Cc1c(OC)oc(CO)c(C(=O)OC)c1=O (centres unmarked) on Aβ42 (Homo sapiens)? 0.1909

====

- TEST SYSTEM: Aβ42 (Homo sapiens, UniProt P05067)
- ASSAY EXPLANATION: Th-T (thioflavin-T) assay of Aβ42 aggregation
- Assay type: biochemical
- CONDITIONS USED: reading M118; compound at 10 (head suffix _10)
MEASUREMENT NAME: Th-T fluorescence, mean of three wells (Fig. 7a)
One number for each entry.

Below: 3 compounds and their reported Th-T fluorescence, mean of three wells (Fig. 7a).
* C=C1CCC2C(C)(CCC=C(C)C)C(O)CCC2(C)C1Cc1c(OC)oc(CO)c(C(=O)OC)c1=O (centres unmarked) [Compound 13] | 1.549
* C=C1CCC2C(C)(CCC=C(C)C)C(O)CCC2(C)C1Cc1c(OC)oc(C)c(C(=O)OC)c1=O (centres unmarked) [Compound 14] | 2.882
* C=C1CC[C@@H]2[C@](C)(CC[C@H]3O[C@H](C=C(C)C)C[C@@]23C)[C@@H]1Cc1c(OC)oc(CO)c(C(=O)OC)c1=O [Compound 21] | 1.7

// input: 2 compounds below; output: Th-T fluorescence, mean of three wells (Fig. 7a) for each
1. C=C1CCC2C(C)(CCC=C(C)C)C(O)CCC2(C)C1Cc1c(OC)oc(CO)c(C)c1=O (centres unmarked) [Compound 12]
2. C=C1CC[C@@H]2[C@](C)(CC[C@H]3O[C@H](C=C(C)C)C[C@@]23C)[C@@H]1Cc1c(OC)oc(CO)c(C)c1=O [Compound 20]

[2.576, 3.228]

====

- TEST SYSTEM: Aβ42 (Homo sapiens, UniProt P05067)
- ASSAY EXPLANATION: Th-T (thioflavin-T) assay of Aβ42 aggregation
- Format: biochemical
- CONDITIONS USED: Aβ42 aggregation time course, reading M122
MEASUREMENT NAME: Th-T fluorescence, mean of three wells
Give bare numbers.

Below: 3 molecules and their reported Th-T fluorescence, mean of three wells.
• CC(C)=CCC/C(C)=C/CC/C(C)=C/CC/C(C)=C/Cc1c(O)c(C)c(C)oc1=O [Compound 2] = 2.943
• C=C1CC[C@H]2[C@]3(C)C[C@H](C=C(C)C)O[C@H]3CC[C@]2(C)[C@@H]1Cc1c(OC)oc(C)c(C)c1=O [Compound 24] = 3.899
• C=C1CC[C@H]2[C@]3(C)C[C@H](C=C(C)C)O[C@H]3CC[C@]2(C)[C@@H]1Cc1c(O)c(C)c(C)oc1=O [Compound 6, subglutinol B] = 3.055

// input: 3 molecules below; output: Th-T fluorescence, mean of three wells for each
1. C=C1CCC2C(C)(CCC=C(C)C)C(O)CCC2(C)C1Cc1c(OC)oc(C)c(C(=O)OC)c1=O (stereo not drawn) [Compound 14]
2. C=C1CC[C@H]2[C@]3(C)C[C@@H](C=C(C)C)O[C@H]3CC[C@]2(C)[C@@H]1Cc1c(O)c(C)c(C)oc1=O [Compound 5, subglutinol A]
3. C=C1CCC2C(C)(CCC=C(C)C)C(O)CCC2(C)C1Cc1c(OC)oc(CO)c(C)c1=O (stereo not drawn) [Compound 12]

[1.683, 2.656, 2.039]

====

- TEST SYSTEM: Aβ42 (Homo sapiens, UniProt P05067)
- ASSAY EXPLANATION: Th-T (thioflavin-T) assay of Aβ42 aggregation
- Assay type: biochemical
- CONDITIONS USED: head suffix _50 (concentration 50); reading M73
Give Th-T fluorescence of Aβ42 (sheet Fig. 7a), mean of three wells for every item shown.
Give bare numbers.

Below: 3 molecules and their reported Th-T fluorescence of Aβ42 (sheet Fig. 7a), mean of three wells.
* C=C1CC[C@@H]2[C@](C)(CC[C@H]3O[C@H](C=C(C)C)C[C@@]23C)[C@@H]1Cc1c(OC)oc(CO)c(C)c1=O | 2.113
* C=C1CCC2C(C)(CCC=C(C)C)C(O)CCC2(C)C1Cc1c(OC)oc(CO)c(C)c1=O (centres unmarked) | 1.414
* C=C1CCC2C(C)(CCC=C(C)C)C(O)CCC2(C)C1Cc1c(OC)oc(C)c(C(=O)OC)c1=O (centres unmarked) | 2.8491

// input: 2 molecules below; output: Th-T fluorescence of Aβ42 (sheet Fig. 7a), mean of three wells for each
1. C=C1CC[C@@H]2[C@](C)(CC[C@H]3O[C@H](C=C(C)C)C[C@@]23C)[C@@H]1Cc1c(OC)oc(CO)c(C(=O)OC)c1=O
2. C=C1CCC2C(C)(CCC=C(C)C)C(O)CCC2(C)C1Cc1c(OC)oc(CO)c(C(=O)OC)c1=O (centres unmarked)

1: 0.2746; 2: 0.4729

FYI, the data here is from paper PMC7156458.
